Test: Oral bioavailability in Beagle dog at 5 mg/kg administered as spray-dried dispersion in 99.5% water/0.5% methocel E4M by LC-MS/MS analysis
Format: ADME, organism-based, Canis lupus familiaris
Settings: in vivo
experimental endpoint: bioavailability

Which bioavailability is listed for `C=C(C)[C@@H]1CC[C@]2(NCC[C@]3(O)CC[C@@H](S(C)(=O)=O)CC3)CC[C@]3(C)[C@H](CC[C@@H]4[C@@]5(C)CC=C(C6=CC[C@](CF)(C(=O)O)CC6)C(C)(C)[C@@H]5CC[C@]43C)[C@@H]12` ?
31%

* * *

Assay: Half life in Beagle dog at 1 mg/kg, iv by LC-MS/MS analysis
Assay type: ADME, organism-based, Canis lupus familiaris
Settings: in vivo
experimental endpoint: half-life
I'd appreciate it if you included the unit after the number.

Which half-life is listed for `C=C(C)[C@@H]1CC[C@]2(NCC[C@]3(O)CC[C@@H](S(C)(=O)=O)CC3)CC[C@]3(C)[C@H](CC[C@@H]4[C@@]5(C)CC=C(C6=CC[C@](CF)(C(=O)O)CC6)C(C)(C)[C@@H]5CC[C@]43C)[C@@H]12` ?
13.4 h
